target: T1, full-length human SIRPαV2 (CAA71403.1) on cells (human, UniProt P78324 31-504); assay: flow cytometry, CD14+ monocytes V2V2
T1 construct: one molecule for CHO-K1 and Expi-CHO transfectants (CAA71403.1) and for endogenous V2 on THP-1 cells and on CD14+ monocytes of V2/V2 donors; also called CHO-hSIRPαV2; αV2 WT
T1 sequence (P78324 other isoform, or with tags, fused parts or gaps): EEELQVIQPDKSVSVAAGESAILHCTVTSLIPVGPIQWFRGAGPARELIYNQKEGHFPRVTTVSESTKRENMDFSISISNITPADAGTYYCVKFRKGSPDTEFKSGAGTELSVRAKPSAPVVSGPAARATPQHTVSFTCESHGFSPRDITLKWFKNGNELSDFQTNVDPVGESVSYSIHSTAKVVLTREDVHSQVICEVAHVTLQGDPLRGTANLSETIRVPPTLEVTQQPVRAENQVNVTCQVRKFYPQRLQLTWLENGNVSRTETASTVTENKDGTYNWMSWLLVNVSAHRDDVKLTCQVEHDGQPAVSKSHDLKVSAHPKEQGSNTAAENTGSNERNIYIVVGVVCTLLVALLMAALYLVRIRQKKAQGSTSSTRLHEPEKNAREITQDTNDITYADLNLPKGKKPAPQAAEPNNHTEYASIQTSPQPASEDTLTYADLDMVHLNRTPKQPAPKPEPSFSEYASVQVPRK
Please go through the items and note down their EC50.

Some binders with recorded EC50:
{"columns": ["BINDER", "EC50"],
 "data": [
  ["Antibody B (antibody, human IgG1, kappa, L234A L235A, V domains shown) VH: QVQLVQSGAEVKKPGASVKVSCKASGYTFTGNYMHWVRQAPGQGLEWMGWINPNSGGTNYAQKFQGRVTMTRDTSISTAYMELSRLRSDDTAVYYCVSGSGWYENYYYYGMDVWGQGTTVTVSS VL: DIQMTQSPSSVSASVGDRVTITCRASQGISSWLAWYQQKPGKAPKLLIYAESSLQSGVPSRFSGSGSGTDFTLTISSLQPEDFATYYCQQANSFPLTFGGGTKVEIKR", "21.8 nM"],
  ["Antibody C (antibody, human IgG1, kappa, L234A L235A, V domains shown) VH: EVQLVESGGGLVQPGGSLRLSCAASGFTFSSYDMHWVRQATGKGLEWVSVIGIAGDTYYPGSVKGRFTISRENAKNSLYLQMNSLRVGDTAVYYCARGGSWDDAFDIWGQGTMVTVSS VL: DIQMTQSPSSLSASIGDKVTITCRASQDINNYLAWFQQKPGKAPKSLIYTASSLQSGVPSKFSGSGSGTDFTLTISSLQPEDFATYYCQQYVSYPYTFGQGTKLEIKR", "0.3 nM"]
]}

The record that follows has no EC50 shown yet.
-- ask Report EC50 for anti-SIRPα antibody SIRP AB11 (antibody, V domains shown) VH: QVQLVQSGAEVKKPGASVKVSCKASGYTFRGYGISWVRQAPGQGLEWMGWISAYGGETNYAQKLQGRVTMTTDTSTSTAYMELRSLRSDDTAVYYCAREAGSSWYDFDLWGRGTLVTVSS VL: DIQMTQSPSSVSASVGDRVTITCRASQGISSWLAWYQQKPGKAPKLLIYAASNLQSGVPSRFSGSGSGTDFTLTISSLQPEDFATYYCQQGASFPITFGGGTKVEIKR
-- reply 0.1 nM
